test system: HOP-18 NSCLC; experiment: NCI tumour cell line growth inhibition, 48 h
observable: TGI

Example entries and their recorded answers appear below.
- compound: "COC(=O)CCC1=NOC(CC2CC(CCC(=O)OC)=NO2)C1 (centres undefined)"
  system.name: "HOP-18 NSCLC"
  observable: "TGI"
  data.value: "> 100 µM"
- compound: "CCOC(=O)/C(=C\\c1ccccc1)C(=O)CCN1CCOCC1"
  system.name: "HOP-18 NSCLC"
  observable: "TGI"
  data.value: "28.6 µM"
- compound: "CN(C)c1nc(=Nc2ccc3c(c2)OCO3)ss1"
  system.name: "HOP-18 NSCLC"
  observable: "TGI"
  data.value: "> 100 µM"
- compound: "O=C(NO)C(=O)Nc1cc(Cl)ccc1Cl"
  system.name: "HOP-18 NSCLC"
  observable: "TGI"
  data.value: "> 100 µM"
- compound: "CCCCc1c2c(nc3c1CCCC3=O)C(=O)CCC2"
  system.name: "HOP-18 NSCLC"
  observable: "TGI"
  data.value: "> 100 µM"

Enquiry: Which TGI is reported for this compound? COc1ccc(C(=C[N+](=O)[O-])c2ccc(OC)cc2)cc1
Return: > 100 µM

Enquiry: Requested field: TGI. Item: Cc1cccc(C(C)(C)C)c1NC(=O)CCl
Return: > 100 µM

Data provenance: PubChem BioAssay (NCI)
